Assay: Pharmacokinetics in Male Beagle Dogs
Type: in vivo
Settings: male, Beagle, dog, plasma, po, 5 mg/kg, tablet formulation (first of two); read-out: apparent oral bioavailability
property-measured: bioavailability (%)
Give bare numbers, in %.

Returns the measured bioavailability for the input compound. Input: Cc1noc(-c2ccc(-c3ccc(C4(C(=O)[O-])CC4)cc3)cc2)c1NC(=O)O[C@H](C)c1ccccc1.[Na+] [Compound 2]
100

* * *

Experiment: Solubility assessment at various pH levels (solubility profile)
Format: physicochemical
Details: 0.15M NaCl solution, saline or isotonic, thermodynamic from solid, Target pH 7, pH adjusted with HCl or NaOH
property-measured: solubility at 2 h (µg/mL)
Answers are plain numbers, in µg/mL.

- Cc1noc(-c2ccc(-c3ccc(C4(C(=O)[O-])CC4)cc3)cc2)c1NC(=O)O[C@H](C)c1ccccc1.[Na+]: 300

Returns the measured solubility at 2 h for the input compound. Input: `Cc1noc(-c2ccc(-c3ccc(C4(C(=O)O)CC4)cc3)cc2)c1NC(=O)O[C@H](C)c1ccccc1`
3.3

* * *

Assay: Pharmacokinetics in Sprague-Dawley Rats
Format: in vivo
Details: PO 1 mg/kg, fasted, females
property-measured: mean dose adjusted exposure (AUC0-24/D)

Returns the measured mean dose adjusted exposure (AUC0-24/D) for the input molecule. Input: `Cc1noc(-c2ccc(-c3ccc(C4(C(=O)O)CC4)cc3)cc2)c1NC(=O)O[C@H](C)c1ccccc1`
1.9 µg·h/mL

* * *

Assay: Thermodynamic aqueous solubility
Format: physicochemical
Details: water, 25 °C, thermodynamic from solid, equilibrated at 25° C. for 24 hours, read-out: Solubility (mg/ml, free form equivalent)
property-measured: solubility at 24 h (mg/mL)
Answers are plain numbers, in mg/mL.

Returns the measured solubility at 24 h for the input compound. Input: `Cc1noc(-c2ccc(-c3ccc(C4(C(=O)O)CC4)cc3)cc2)c1NC(=O)O[C@H](C)c1ccccc1`
0.028

* * *

Target: human LPA2 (Homo sapiens)
Construct: endogenous in cells
Sequence (Q9HBW0 whole entry): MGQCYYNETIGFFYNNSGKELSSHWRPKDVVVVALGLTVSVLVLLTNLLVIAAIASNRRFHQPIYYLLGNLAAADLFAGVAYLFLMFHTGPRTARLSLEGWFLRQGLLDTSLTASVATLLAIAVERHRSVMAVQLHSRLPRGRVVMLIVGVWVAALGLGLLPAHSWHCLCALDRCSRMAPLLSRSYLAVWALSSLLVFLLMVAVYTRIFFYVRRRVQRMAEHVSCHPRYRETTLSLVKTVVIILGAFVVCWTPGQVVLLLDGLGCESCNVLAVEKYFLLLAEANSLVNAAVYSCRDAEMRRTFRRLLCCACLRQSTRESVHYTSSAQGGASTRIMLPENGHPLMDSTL
Assay: LPA2 Calcium Flux Assay
Settings: 100 nM LPA; read-out: Ca Flux IC50 LPA2
Description: A vector containing the human LPA2 receptor cDNA was obtained from the Missouri S&T cDNA Resource Center (www.cdna.org). The full-length cDNA fragment for human LPA2 was obtained by PCR from the vector. The nucleotide sequence of the cloned human LPA2 was determined by sequencing and confirmed to be identical to the published human LPA2 sequence (NCBI accession number NM_004720). […]
property-measured: IC50

Returns the measured IC50 for the input molecule. Input: `Cc1noc(-c2ccc(-c3ccc(C4(C(=O)O)CC4)cc3)cc2)c1NC(=O)O[C@H](C)c1ccccc1`
> 1000 nM

* * *

Test: Solubility assessment at various pH levels (solubility profile)
Format: physicochemical
Conditions: 0.15M NaCl solution, saline or isotonic, thermodynamic from solid, Target pH 5, pH adjusted with HCl or NaOH
Exercise: for every item that follows, state its recorded solubility at 2 h.

- Cc1noc(-c2ccc(-c3ccc(C4(C(=O)O)CC4)cc3)cc2)c1NC(=O)O[C@H](C)c1ccccc1: < 1 µg/mL

Returns the measured solubility at 2 h for the input molecule. Input: `Cc1noc(-c2ccc(-c3ccc(C4(C(=O)[O-])CC4)cc3)cc2)c1NC(=O)O[C@H](C)c1ccccc1.[Na+]`
< 1 µg/mL

* * *

Assay: Pharmacokinetics in Male Beagle Dogs
Type: in vivo
Details: male, Beagle, dog, plasma; oral 5 mg/kg, fasted state
property-measured: Cmax (ng/mL)
Numbers only, in ng/mL.

Returns the measured Cmax for the input compound. Input: `Cc1noc(-c2ccc(-c3ccc(C4(C(=O)[O-])CC4)cc3)cc2)c1NC(=O)O[C@H](C)c1ccccc1.[Na+]`
5500

* * *

Molecular target: UniProt Q99677
Sequence (Q99677 whole entry, species assumed): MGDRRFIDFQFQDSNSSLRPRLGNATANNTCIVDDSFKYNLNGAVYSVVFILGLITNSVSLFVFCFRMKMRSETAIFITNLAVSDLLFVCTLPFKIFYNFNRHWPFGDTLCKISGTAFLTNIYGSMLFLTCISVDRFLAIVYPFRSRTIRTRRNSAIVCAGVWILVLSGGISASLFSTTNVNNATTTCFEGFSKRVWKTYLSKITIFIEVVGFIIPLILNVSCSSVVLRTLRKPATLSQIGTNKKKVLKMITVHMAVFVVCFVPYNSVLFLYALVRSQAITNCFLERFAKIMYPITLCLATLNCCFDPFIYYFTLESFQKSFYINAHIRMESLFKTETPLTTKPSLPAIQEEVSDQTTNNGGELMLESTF
Assay: LPA4 Calcium Flux Assay
Conditions: read-out: Ca Flux IC50 LPA4
pIC50: −log10 of the molar value.
property-measured: pIC50

Record lookup: for UniProt Q99677, what pIC50 belongs to `Cc1noc(-c2ccc(-c3ccc(C4(C(=O)O)CC4)cc3)cc2)c1NC(=O)O[C@H](C)c1ccccc1` ?
< 6.00
